# System: prostate cancer cells PC-3
# Assay type: cell-based, human
# CONDITION_DETAILS: 48 h
Bridges are numbered along the chain shown (N, C = ends). Roman numbers before positions name the chains, in order. [ ]: non-standard residue; d: D form.
MEASURED_ENDPOINT: pIC50
# pIC50 is unitless: minus log10 of the molar concentration; print number only

Query string: Write down pIC50 measured for item I: H-FLSGIVGML[dA]KLFKK-NH2 / II: H-FLSGIVGML[dA]KLF / III: H-FLSGIVGML[dA]KLF (amide I:14-III:C, I:15-II:C) [[G10a]3-SHa]
Result string: 5.74

* * *

# Tested on: skin cancer cells MNT-1
# Assay type: cell-based, human
# CONDITION_DETAILS: Skin Cancer (MNT-1), 48 h; read-out: IC50 (cell proliferation)
Where no end group is shown, it is not given here.
MEASURED_ENDPOINT: IC50

Query string: Recall the reported IC50 of FLSGIVGMLGKLF-NH2 [Temporin SHa] on skin cancer cells MNT-1 and write it down.
Result string: > 100 µM
